Quick reference for cell count among some compounds
test: viability loss with induced miR-34 in A549 – imaging, A549 dox-inducible miR-34, nuclei and caspase counts, primary screen (AID 1347080); conditions: A549 miR-34 inducible, Hoechst nuclei count, 48 h; measured here: total cells with miR-34 induction; stronger effect = lower value
measured-endpoint: cell count

compound	experimental-value
COc1cccc2c(=O)n(Cc3ccc4ncccc4c3)cnc12	8080
CCc1c(C)[nH]n(-c2nn[nH]n2)c1=O	8110
O=C(O)CCCNC(=O)NC1CCCCC1	8970
CC(C)(C)NS(=O)(=O)c1cncc(-c2cc(F)c3nc(N)nn3c2)c1	8160
COc1ccccc1-c1cc(Nc2cccc(CS(N)(=O)=O)c2)ncn1	3900
CN1C2CC[C@H]1CC(OC(=O)C(O)c1ccccc1)C2 (some centres not stated)	10300
CCCC(NC(=O)C(C#N)=Cc1cccc(Br)n1)c1ccccc1 (configuration not stated)	824
C=C1C(=CC=C2CCC[C@@]3(C)C2CCC3C(C)C=CC(O)C2CC2)CC(O)CC1O (some centres not stated)	9990
CCCCCCCCCCCCCCCCOCC(CO)OC(C)=O (configuration not stated)	5510
Cn1nc(NC(=O)Cn2cc(-c3nccc4occc34)cn2)c2ccccc21	7280
O=C(O)CNC(=O)Cc1c[nH]c2ccccc12	8420
O=C(NN=Cc1cc(Br)c(O)c(Br)c1O)c1cccc(Br)c1	2930
CN(C)CCC=C1c2ccccc2Sc2ccc(Cl)cc21	7540
OC[C@H]1NC[C@@H](O)[C@@H]1O	8680
Cc1cc(C(=O)Nc2ccc3c(c2)CC(=O)N3)c(C)o1	9120
Cc1nn(C)cc1-c1ccnc(NCc2nc(-c3ccccc3)no2)n1	7970
Nc1ncc(Cc2ccccc2)s1	8010
O=C(O)C1CN(CCCP(=O)(O)O)CCN1 (configuration not stated)	10000
CCC(C)C(=O)OC1CC(C)C=C2C=CC(C)C(CCC3CC(O)CC(=O)O3)[C@H]21 (some centres not stated)	3590
Cn1ccnc1	11100
CC(C)N(CC1OC(n2cnc3c(N)ncnc32)C(O)C1O)C1CC(CCc2nc3ccc(C(C)(C)C)cc3[nH]2)C1 (configuration not stated)	8950
CCN1CCCC1CNC(=O)c1c(O)c(Cl)cc(Cl)c1OC (configuration not stated)	9680

###

experiment: compounds altering circadian rhythm period length – cell-based, LOPAC library, luminescence reporter (AID 2774); conditions: circadian reporter cells, at 7 µM, actives lie on both sides;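 note: values are relative to mean of DMSO wells on each plate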
Active and inactive are the calls of the source. How the calls were made is not given here.
Quick reference for period change among some compounds
measured-endpoint: period change

compound	measured-endpoint	experimental-value
O=C1CN(/N=C/c2ccc(-c3ccc([N+](=O)[O-])cc3)o2)C(=O)N1	period change	0.19 h (inactive)
COc1cccc2c1[C@@H]1CN(CCCCn3c(=O)[nH]c4c(sc5ncc(-c6ccccc6)nc54)c3=O)C[C@@H]1CO2	period change	-0.035 h (inactive)
Ic1ccc(N2CCN(Cc3c[nH]c4ncccc34)CC2)cc1	period change	0.1 h (inactive)
C#CCn1c(=O)c2c(ncn2C)n(C)c1=O	period change	-0.07 h (inactive)
Brc1ccc([C@H]2CN3CCSC3=N2)cc1	period change	-0.16 h (inactive)
CCCCS(=N)(=O)CC[C@H](N)C(=O)O (some centres undefined)	period change	-0.045 h (inactive)
Cc1ccc(C(=O)O[C@H](C(=O)O)[C@H](OC(=O)c2ccc(C)cc2)C(=O)O)cc1 (tested in a mixture with another compound)	period change	-0.105 h (inactive)
NCCC(=O)NCCc1cnc[nH]1	period change	0.085 h (inactive)
C[N+](C)(C)CC=O	period change	-0.2 h (inactive)

###

assay: MELAS cybrid and Rieske KO viability enhancers – cell-based, MELAS cybrids, Rieske KO mouse fibroblasts, CellTiter-Glo, primary screen (AID 1508586); conditions: Rieske KO mouse fibroblast survival, low glucose, CellTiter-Glo 72 h;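 note: z relative to plate mean and SD of compound and empty wells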
Quick reference for z-score among some compounds

compound	z-score
O=C(O)c1ccc(B(O)O)cc1	0.194
CC(O)c1cn(C2CCN(c3ncnc4nc[nH]c34)CC2)nn1 (stereo unspecified)	-0.198
O=C(O)C(O)C(O)C(O)C(O)C(=O)O (stereo unspecified) (tested in a mixture with another compound)	-0.918
CCN1CCN(Cc2ccc(-c3cc4c(NC(C)c5ccccc5)ncnc4[nH]3)cc2)CC1 (stereo unspecified)	0.518
CC1=C(CCN2CCC3(CC2)C(=O)N(C(C)C)C(=O)N3C)C(C)(C)CCC1	-0.31
CN(C)CCCCC(=O)Nc1ccc(NC(=S)NC(=O)c2ccc(C(C)(C)C)cc2)cc1	-0.0265
NC(N)=NCC(=O)O	0.0822
Nc1nc(NCc2ccncc2)c2cn[nH]c2n1	-0.366
CC(C)C(NC(=O)Cc1c[nH]c2ccccc12)C(=O)O (stereo unspecified)	-0.306
COC1=C2CC(C)CC(OC)C(O)C(C)C=C(C)C(OC(N)=O)C(OC)C=CC=C(C)C(=O)NC(=CC1=O)C2=O (stereo unspecified)	-2.42
CC(C)C[C@H]1C(=O)N2CCC[C@H]2[C@]2(O)O[C@](NC(=O)[C@@H]3C=C4c5cccc6[nH]c(Br)c(c56)CC4N(C)C3)(C(C)C)C(=O)N12 (stereo partly specified)	0.597
CC(C)C[C@H]1C(=O)N2CCN(Cc3cccc4ncccc34)C[C@@H]2C(=O)N1C	-0.107
C[C@@]1(c2nc3c(C(N)=O)cccc3[nH]2)CCCN1	0.497
C=CC1CN2CC[C@H]1C[C@H]2C(O)c1ccnc2ccc(OC)cc12 (stereo partly specified)	-0.396
CCC(C)CC(C)CCCCCCCCC(=O)NC1CC(O)C(NCCN)NC(=O)[C@@H]2C(O)CCN2C(=O)[C@@H](C(O)CCN)NC(=O)[C@H](C(O)C(O)c2ccc(O)cc2)NC(=O)[C@@H]2CC(O)CN2C(=O)[C@H](C(C)O)NC1=O (stereo partly specified)	0.0344
O=C(O)C=Cc1ccccc1O	0.0548

###

assay: MELAS cybrid and Rieske KO viability enhancers – cell-based, MELAS cybrids, Rieske KO mouse fibroblasts, CellTiter-Glo, primary screen (AID 1508586); conditions: MELAS cybrid survival, low glucose, CellTiter-Glo 48 h;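 note: z relative to plate mean and SD of compound and empty wells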
Calls of active or inactive are those of the source.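 The calls were made as follows: active = mean z-score across replicates of 1.96 or higher in either the MELAS or the Rieske mutant cell line; inactive = the rest.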
Outcome codes: T for active, F for inactive

compound	group-label
COc1ccc(CCC(=O)O)cc1OC	F
CC1OC(n2cc(F)c(=O)[nH]c2=O)C(O)C1O (centres undefined)	F
CNS(=O)(=O)c1cc(NCc2cnc(C)[nH]2)cc(C(=O)Nc2ccc3c(c2)CCC3)c1	F
CCOC(=O)c1cnc2ccc(-c3cncc(NS(=O)(=O)c4ccccc4)c3)cn12	F
CC(C)NCCCn1c(Sc2cc3c(cc2I)OCO3)nc2c(N)ncnc21	T
O=C(c1cccc2nccnc12)N1CCc2[nH]nc(COc3ccccc3)c2C1	F
COc1ccc(-c2cc(=O)c3c(O)cc(OC4OC(COC5OC(C)C(O)C(O)C5O)C(O)C(O)C4O)cc3o2)cc1O (centres undefined)	F
CCC(=C(CC)c1ccc(O)cc1)c1ccc(O)cc1	F
CCCn1nc(C(=O)N2CCCCC2)c2c1CCC(NCc1cccnc1)C2 (centres undefined)	F
CC(O)Cc1cn(C2CCN(c3ncnc4nc[nH]c34)CC2)nn1 (centres undefined)	F
CCn1c(N)c(C(=O)NC)c(=O)c2ccc(C#C[C@@](C)(O)COC)nc21	F
Nc1nc(CC(=O)Nc2ccc(CCNC[C@H](O)c3ccccc3)cc2)cs1	F
COC(=O)c1ccccc1O	F

###

Quick reference for fold change among some molecules
assay: viability loss with induced miR-34 in A549 – imaging, A549 dox-inducible miR-34, nuclei and caspase counts, primary screen (AID 1347080); details: A549 miR-34 inducible, Hoechst nuclei count, 48 h; stronger effect = lower value; cell number ratio, induced over uninduced

molecule	fold change
C#CCn1c(=O)c2c(ncn2C)n(C)c1=O	0.971
COc1ccc(C2CC(=O)c3c(O)cc(O)cc3O2)cc1O (stereo not drawn)	0.926
CNCCc1cnc(CCC(c2ccccc2)c2ccccc2)[nH]1	1.13
CC#CCC(C)[C@H](O)/C=C/[C@@H]1[C@H]2C/C(=C/CCCC(=O)O)C[C@H]2C[C@H]1O (stereo partly drawn)	0.876
Cc1nn(C)cc1-c1ccnc(NC2CCOC(C)(C)C2)n1 (stereo not drawn)	0.847
CCOc1ccccc1-c1ncnc2sc(C)c(C)c12	0.89
CCCCC[C@H](O)/C=C/[C@H]1OC(O)C[C@H](O)[C@@H]1C/C=C\CCCC(=O)O (stereo partly drawn)	0.852
CC[C@@]1([C@@H]2O[C@@H]([C@H]3O[C@@](O)(CO)[C@H](C)C[C@@H]3C)C[C@@H]2C)CC[C@H]([C@]2(C)CC[C@]3(C[C@H](O)[C@@H](C)[C@@H]([C@@H](C)[C@@H](OC)[C@H](C)C(=O)O)O3)O2)O1 (stereo in doubt)	0.901
CC(C)c1c(C(=O)Nc2ccccc2)c(-c2ccccc2)c(-c2ccc(F)cc2)n1CCC(O)CC(O)CC(=O)O (stereo not drawn)	1.21
C=C1C(=O)OC2C=C(C)CCC=C(C)CCC12 (stereo not drawn)	0.92
CC(C)n1ncc(NC(=O)Cn2ccc(-c3ccc(C(F)(F)F)cc3)n2)n1	0.965
COc1cc(CNC(=O)CCCCC=CC(C)C)ccc1O	0.954
Cc1nsc(NC(=O)N2CCC(C(O)CC(C)C)CC2)n1 (stereo not drawn)	0.832
